Cited source: patent US20200055883A1

# system.under.test: AQ Human STING (Homo sapiens, UniProt Q86WV6, G230A/H232R/R293Q)
# Sequence (Q86WV6 whole entry G230A/H232R/R293Q): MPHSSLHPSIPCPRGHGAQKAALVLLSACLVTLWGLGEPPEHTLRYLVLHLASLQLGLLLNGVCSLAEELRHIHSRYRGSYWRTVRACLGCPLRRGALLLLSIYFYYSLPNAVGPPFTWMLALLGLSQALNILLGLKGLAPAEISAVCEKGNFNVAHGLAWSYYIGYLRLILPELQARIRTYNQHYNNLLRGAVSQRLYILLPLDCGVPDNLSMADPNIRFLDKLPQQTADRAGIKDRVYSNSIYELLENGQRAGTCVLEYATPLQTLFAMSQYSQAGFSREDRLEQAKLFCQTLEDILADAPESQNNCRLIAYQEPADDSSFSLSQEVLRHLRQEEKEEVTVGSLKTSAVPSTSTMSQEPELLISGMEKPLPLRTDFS
# assay.summary: STING variant specific reporter assay, AQ-STING (THP1-Dual KO-STING cells)
# measurement.context: Human STING EC50 (μM) AQ, Table 5; ammonium salt form of each compound
measurement.type: EC50 (µM)

O=P1(S)OC[C@H]2O[C@@H]3[C@H](F)[C@@H]2OP(=O)(S)OC[C@H]2OC([C@H](F)[C@@H]2O1)n1cnc2c(ncnc21)NCC/C=C/CNc1ncnc2c1ncn23 (single isomer, unassigned) [Compound 8]
81

I = O=P1(S)OC[C@H]2O[C@@H]3[C@H](F)[C@@H]2OP(=O)(S)OC[C@H]2OC([C@H](F)[C@@H]2O1)n1cnc2c(ncnc21)NCC/C=C/CNc1ncnc2c1ncn23 (single isomer, unassigned) [Compound 37]
II = O=[P@]1(S)OC[C@H]2OC3[C@H](F)[C@@H]2O[P@](=O)(S)OC[C@H]2O[C@H]([C@H](F)[C@@H]2O1)n1cnc2c(ncnc21)NCCCCNc1ncnc2c1ncn23 [Compound 6]
III = O=P1(O)OC[C@H]2O[C@@H]3[C@H](F)[C@@H]2OP(=O)(O)OC[C@H]2OC([C@H](F)[C@@H]2O1)n1cnc2c(ncnc21)NC/C=C/CNc1ncnc2c1ncn23 [Compound 9]
QUERY: Rank items: key EC50, increasing. The response must list the labels following the requested ordering.
RESULT: II, III, I
